System: H3K27me3 in 639V bladder cancer cell line
Experiment: Global H3K27me3 intracellular levels, 639V
Type: cell-based
Settings: Homo sapiens, 72 h, Day 3, read-out: EC50, reduction of global H3K27me3 levels
readout.type: pEC50
Scale for pEC50: -log10 of concentration given in mol/L; no unit attached.

Query block: Would you kindly share the measured pEC50 for COC1CN(C2CCC(C3(C)Oc4c(Cl)cc(C(=O)NCc5c(SC)cc(C)[nH]c5=O)c(C)c4O3)CC2)C1 (single isomer, unassigned) [Compound 1] ?
Result block: 10.05
